Emax overview
target: MOR (Homo sapiens, UniProt P35372); construct: expressed in transfected cells; host or cells: CHO-K1/OP3 (name from the earlier reading); experiment: Agonist test on MOR, cAMP level (CHO-K1/OP3 cells, cAMP assay kit); assay type: cell-based; conditions: maximal effect of DAMGO is 100%, read-out: Emax agonizing MOR receptor to affect cAMP level
Sequence (P35372 whole entry): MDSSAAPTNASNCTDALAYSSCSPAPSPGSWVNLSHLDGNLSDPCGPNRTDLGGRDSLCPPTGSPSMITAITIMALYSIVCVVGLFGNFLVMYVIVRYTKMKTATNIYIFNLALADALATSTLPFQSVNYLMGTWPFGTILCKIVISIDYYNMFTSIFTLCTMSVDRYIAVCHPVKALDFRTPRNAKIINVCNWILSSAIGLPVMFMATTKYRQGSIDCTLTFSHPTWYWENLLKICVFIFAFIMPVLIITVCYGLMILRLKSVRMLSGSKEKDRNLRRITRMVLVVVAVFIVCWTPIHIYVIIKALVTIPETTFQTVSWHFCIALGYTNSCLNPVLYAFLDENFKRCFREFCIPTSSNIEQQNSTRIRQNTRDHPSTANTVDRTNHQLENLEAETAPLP

| MOLECULE | TARGET OF ASSAY | Emax |
| --- | --- | --- |
| Fc1ccc(C2(CCN[C@H]3CCc4ccccc43)CCOC3(CCOCC3)C2)nc1 (stereo partly drawn) [Compound 3-1] | MOR (Homo sapiens, UniProt P35372) | 99.9% |
| Fc1ccc(C2(CCNC3Cc4cccc(Cl)c4C3)CCOC3(CCOCC3)C2)nc1 (stereo not drawn) [Compound 17] | MOR (Homo sapiens, UniProt P35372) | 93.8% |
| Fc1ccc(C2(CCNCc3cccc(Cl)c3Cl)CCOC3(CCOCC3)C2)nc1 (stereo not drawn) [Compound 13] | MOR (Homo sapiens, UniProt P35372) | 78.9% |
| Fc1ccc([C@]2(CCNC3Cc4ccccc4C3)CCOC3(CCOCC3)C2)nc1 [Compound 8-1] | MOR (Homo sapiens, UniProt P35372) | 92.8% |
| Fc1ccc(C2(CCNC3CCc4ccc(Cl)cc43)CCOC3(CCOCC3)C2)nc1 (stereo not drawn) [Compound 4] | MOR (Homo sapiens, UniProt P35372) | 103% |
| Clc1cccc2c1CCC2NCCC1(c2ccccn2)CCOC2(CCOCC2)C1 (stereo not drawn) [Compound 16] | MOR (Homo sapiens, UniProt P35372) | 102% |
| Fc1ccc(C2(CCN[C@H]3CCc4ccc(F)cc43)CCOC3(CCOCC3)C2)nc1 (stereo partly drawn) [Compound 1-1] | MOR (Homo sapiens, UniProt P35372) | 103% |
| Fc1ccc([C@]2(CCNCc3cccc(Cl)c3Cl)CCOC3(CCOCC3)C2)nc1 [Compound 13-1] | MOR (Homo sapiens, UniProt P35372) | 78.6% |
| Fc1ccc(C2(CCN[C@H]3CCc4c(F)cccc43)CCOC3(CCOCC3)C2)nc1 (stereo partly drawn) [Compound 2-1] | MOR (Homo sapiens, UniProt P35372) | 101% |
| Fc1ccc(C2(CCN[C@H]3CCc4c(Br)cccc43)CCOC3(CCOCC3)C2)nc1 (stereo partly drawn) [Compound 7-1] | MOR (Homo sapiens, UniProt P35372) | 116% |
| Fc1ccc([C@]2(CCN[C@H]3Cc4cccc(Cl)c4C3)CCOC3(CCOCC3)C2)nc1 [Compound 17-1-1] | MOR (Homo sapiens, UniProt P35372) | 102% |
| Fc1ccc(C2(CCNCc3cccc(Cl)c3F)CCOC3(CCOCC3)C2)nc1 (stereo not drawn) [Compound 14] | MOR (Homo sapiens, UniProt P35372) | 88.1% |
| Fc1ccc(C2(CCNC3Cc4ccccc4C3)CCOC3(CCOCC3)C2)nc1 (stereo not drawn) [Compound 8] | MOR (Homo sapiens, UniProt P35372) | 72% |
| Cc1c(Cl)cccc1CNCC[C@@]1(c2ccc(F)cn2)CCOC2(CCOCC2)C1 [Compound 12-1] | MOR (Homo sapiens, UniProt P35372) | 93.8% |
| Cc1c(Cl)cccc1CNCCC1(c2ccc(F)cn2)CCOC2(CCOCC2)C1 (stereo not drawn) [Compound 12] | MOR (Homo sapiens, UniProt P35372) | 89.8% |
| Fc1ccc(C2(CCNCc3cccc(Cl)c3)CCOC3(CCOCC3)C2)nc1 (stereo not drawn) [Compound 11] | MOR (Homo sapiens, UniProt P35372) | 100% |
| Cc1cccc2c1CC[C@@H]2NCCC1(c2ccc(F)cn2)CCOC2(CCOCC2)C1 (stereo partly drawn) [Compound 6-1] | MOR (Homo sapiens, UniProt P35372) | 118% |
| COc1ccc2c3c1O[C@H]1C(=O)CC[C@@]4(O)[C@@H](C2)N(C)CC[C@]314 [Oxycodone, reference compound] | MOR (Homo sapiens, UniProt P35372) | 95.2% |
